target-or-system: NaLdpA (Novosphingobium aromaticivorans)
Sequence (Q2G4I2 1-243): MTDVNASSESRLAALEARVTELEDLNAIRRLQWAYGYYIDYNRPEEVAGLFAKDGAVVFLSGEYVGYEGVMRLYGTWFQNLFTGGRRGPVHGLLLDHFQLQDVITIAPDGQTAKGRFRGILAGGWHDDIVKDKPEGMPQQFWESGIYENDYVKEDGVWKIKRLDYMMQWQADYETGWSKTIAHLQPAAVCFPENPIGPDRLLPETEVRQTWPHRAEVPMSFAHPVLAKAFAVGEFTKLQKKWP
assay-remarks: spectrophotometric lignostilbene production, product inhibition
pKi: −log10 of the molar value.
parameter: pKi

compound	result-number
COc1cc(/C=C/c2ccc(O)c(OC)c2)ccc1O [lignostilbene]	6.48
